Field: fold repression. Provide a value for each of the binders that follow.
Molecular target: T1, ECF33_423
T1 chain: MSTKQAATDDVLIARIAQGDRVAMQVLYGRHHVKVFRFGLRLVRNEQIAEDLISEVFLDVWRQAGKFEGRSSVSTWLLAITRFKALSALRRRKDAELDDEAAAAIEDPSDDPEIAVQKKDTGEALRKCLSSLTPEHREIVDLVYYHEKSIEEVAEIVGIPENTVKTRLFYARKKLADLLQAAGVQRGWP
Respond with the number and no other words.

Dear colleague, I am looking for the recorded fold repression of the following binder: AS16_973 (protein) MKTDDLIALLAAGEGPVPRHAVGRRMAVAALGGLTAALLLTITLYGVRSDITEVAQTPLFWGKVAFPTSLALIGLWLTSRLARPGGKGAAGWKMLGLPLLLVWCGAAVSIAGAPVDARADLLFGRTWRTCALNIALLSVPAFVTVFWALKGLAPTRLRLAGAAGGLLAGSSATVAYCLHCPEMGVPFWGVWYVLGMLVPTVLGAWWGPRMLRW
0.683

Please give the measured fold repression for this binder: AS22_1147 (protein) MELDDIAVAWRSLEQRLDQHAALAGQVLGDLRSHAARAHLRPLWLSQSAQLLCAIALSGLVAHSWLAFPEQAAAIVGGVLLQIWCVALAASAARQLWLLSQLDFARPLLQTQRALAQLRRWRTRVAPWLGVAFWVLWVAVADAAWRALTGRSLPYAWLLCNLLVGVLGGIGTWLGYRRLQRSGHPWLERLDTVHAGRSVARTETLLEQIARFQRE
1.76

# fold repression lookup, item AS02_915 (protein) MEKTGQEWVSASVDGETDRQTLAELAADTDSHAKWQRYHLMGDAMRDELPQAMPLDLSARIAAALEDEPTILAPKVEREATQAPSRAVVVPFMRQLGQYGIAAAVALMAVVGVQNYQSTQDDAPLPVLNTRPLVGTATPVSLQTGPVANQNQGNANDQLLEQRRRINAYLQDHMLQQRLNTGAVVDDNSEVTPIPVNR
2.28
